Test system EPPasePGM (Bombyx mori, UniProt Q7YTB0), Ki listed for each of the compounds.
Number only, in µM; omit the unit.

Below are worked cases with known answers.
{"compound": "[O]=[V]([OH])([OH])[OH] [Vanadate]", "Ki [µM]": 1900}
{"compound": "O=P(O)(O)O [Phosphate]", "Ki [µM]": 25800}

Please look at the following compound next.
Return reported Ki for target or system EPPasePGM (Bombyx mori, UniProt Q7YTB0), item [O]=[W](=[O])([OH])[OH] [Tungstate] .
34

====

- assayed.system: EPPasePGM (Bombyx mori, UniProt Q7YTB0)
- Sequence (Q7YTB0 69-330 isoform Q7YTB0-1): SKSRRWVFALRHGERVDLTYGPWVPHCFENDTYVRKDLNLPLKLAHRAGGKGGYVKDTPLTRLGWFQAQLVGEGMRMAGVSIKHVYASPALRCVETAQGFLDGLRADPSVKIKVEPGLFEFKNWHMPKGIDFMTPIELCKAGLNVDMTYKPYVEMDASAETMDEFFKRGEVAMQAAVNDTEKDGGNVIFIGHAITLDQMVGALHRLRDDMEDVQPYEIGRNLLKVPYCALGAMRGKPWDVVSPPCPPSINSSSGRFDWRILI
- experiment: Inhibition of EPPasePGM pNPP hydrolysis
- Type: biochemical
measured.attribute: IC50
Please answer using the number first and the unit second.

Give IC50 for [O]=[W](=[O])([OH])[OH] [Tungstate]
52 µM
